Tested on: Streptococcus pyogenes, ATCC 700294
assay.name: Minimal inhibitory concentration assay (microbroth dilution)
Assay type: cell-based
stated.conditions: Streptococcus pyogenes, ATCC700294, read-out: Minimal Inhibitory Concentrations S. pyogenes ATCC 700294
*1 amine or outer side, *2 acyl side, *3 side chain or, on linkers, in order; H or OH if unused. Where a SMILES comes first, the peptide text is derived from it. Bridges are numbered along the chain shown (N, C = ends). [ ]: non-standard residue; d: D form. The star is where a group is joined. Phe(3,5-F2) = N[C@@H](Cc1cc(F)cc(F)c1)C(=O)O; NMepT = CN[C@H](C(=O)O)[C@@H](C)OP(=O)(O)O; Morpholine(3S-CO) = O=C(O)[C@@H]1COCCN1; Pro(4S-Me) = C[C@@H]1CN[C@H](C(=O)O)C1; Pro(4R-Me) = C[C@H]1CN[C@H](C(=O)O)C1; NHPh(4-CF3) = FC(F)(F)c1ccc(N*)cc1; NH(4-Me-phenyl) = Cc1ccc(N*)cc1; aThr = C[C@H](O)[C@H](N)C(=O)O; Pip = O=C(O)[C@@H]1CCCCN1; X2 = CN1CCc2ccc(N*)cc21; CO = O=C([*:1])[*:2]
# reported log10(MIC); entries follow
Recorded MIC (log10, µM)

Solved entries (count: 4):
Cc1ccc(NC(=O)N[C@@H](Cc2cc(F)cc(F)c2)C(=O)N[C@@H]2C(=O)N3CCC[C@H]3C(=O)N3CCOC[C@H]3C(=O)N[C@@H](C)C(=O)N3C[C@H](C)C[C@H]3C(=O)O[C@H]2C)cc1 [Compound 210] ({NH(4-Me-phenyl)-CO}-[Phe(3,5-F2)][aThr]P[Morpholine(3S-CO)]A[Pro(4R-Me)]; ester 2-C) ... -1.70
Cc1ccc(NC(=O)N[C@@H](Cc2cc(F)cc(F)c2)C(=O)N[C@H]2COC(=O)C3C[C@H](C)CN3C(=O)[C@H](C)NC(=O)C3CCCCN3C(=O)C3CCCN3C2=O)cc1 (some centres unmarked) ... -0.40
C[C@@H]1C[C@H]2C(=O)OC[C@H](NC(=O)[C@H](Cc3ccccc3)NC(=O)Nc3ccccc3Cl)C(=O)N3CCC[C@H]3C(=O)N3CCCC[C@H]3C(=O)N[C@@H](C)C(=O)N2C1 ... 0.50
Cc1ccc(NC(=O)N[C@@H](Cc2cc(F)cc(F)c2)C(=O)N[C@@H]2C(=O)N3CCC[C@H]3C(=O)N(C)[C@@H]([C@@H](C)OP(=O)(O)O)C(=O)N[C@@H](C)C(=O)N3C[C@@H](C)C[C@H]3C(=O)O[C@H]2C)cc1 [Compound 188] ({NH(4-Me-phenyl)-CO}-[Phe(3,5-F2)][aThr]P[NMepT]A[Pro(4S-Me)]; ester 2-C) ... 1.70

log10(MIC) for COc1ccc(NC(=O)N[C@@H](Cc2ccccc2)C(=O)N[C@H]2COC(=O)[C@@H]3C[C@@H](C)CN3C(=O)[C@H](C)NC(=O)[C@@H]3CCCCN3C(=O)[C@@H]3CCCN3C2=O)cc1 ?
-0.41

What about C[C@@H]1C[C@H]2C(=O)O[C@@H](C)[C@H](NC(=O)[C@H](Cc3cc(F)cc(F)c3)NC(=O)Nc3ccc4c(c3)N(C)CC4)C(=O)N3CCC[C@H]3C(=O)N3CCCC[C@H]3C(=O)N[C@@H](C)C(=O)N2C1 [Compound 321] ({X2-CO}-[Phe(3,5-F2)][aThr]P[Pip]A[Pro(4R-Me)]; ester 2-C) ?
-0.50

What about Cc1ccc(NC(=O)N[C@@H](Cc2ccccc2)C(=O)N[C@H]2COC(=O)C3C[C@H](C)CN3C(=O)[C@H](C)NC(=O)C3CCCCN3C(=O)C3CCCN3C2=O)cc1 (some centres unmarked) ?
-0.10

What about C[C@@H]1NC(=O)[C@@H]2CCCCN2C(=O)[C@@H]2CCCN2C(=O)[C@@H](NC(=O)[C@H](Cc2cc(F)cc(F)c2)NC(=O)Nc2ccc(C(F)(F)F)cc2)[C@H](C)OC(=O)[C@@H]2CCCN2C1=O [Compound 16] ({NHPh(4-CF3)-CO}-[Phe(3,5-F2)][aThr]P[Pip]AP; ester 2-C) ?
0.18
